target: HMG-CoA reductase (Homo sapiens, UniProt P04035); construct: endogenous in cells; host or cells: HepG2 (Korea Cell Line Bank); experiment: HMG-CoA reductase (HMGCR) degradation in HepG2 cells by western blotting; assay type: cell-based; details: treated for 18 hours, ratio of HMG-CoA reductase to GAPDH, read-out: DC50
Sequence (P04035 whole entry): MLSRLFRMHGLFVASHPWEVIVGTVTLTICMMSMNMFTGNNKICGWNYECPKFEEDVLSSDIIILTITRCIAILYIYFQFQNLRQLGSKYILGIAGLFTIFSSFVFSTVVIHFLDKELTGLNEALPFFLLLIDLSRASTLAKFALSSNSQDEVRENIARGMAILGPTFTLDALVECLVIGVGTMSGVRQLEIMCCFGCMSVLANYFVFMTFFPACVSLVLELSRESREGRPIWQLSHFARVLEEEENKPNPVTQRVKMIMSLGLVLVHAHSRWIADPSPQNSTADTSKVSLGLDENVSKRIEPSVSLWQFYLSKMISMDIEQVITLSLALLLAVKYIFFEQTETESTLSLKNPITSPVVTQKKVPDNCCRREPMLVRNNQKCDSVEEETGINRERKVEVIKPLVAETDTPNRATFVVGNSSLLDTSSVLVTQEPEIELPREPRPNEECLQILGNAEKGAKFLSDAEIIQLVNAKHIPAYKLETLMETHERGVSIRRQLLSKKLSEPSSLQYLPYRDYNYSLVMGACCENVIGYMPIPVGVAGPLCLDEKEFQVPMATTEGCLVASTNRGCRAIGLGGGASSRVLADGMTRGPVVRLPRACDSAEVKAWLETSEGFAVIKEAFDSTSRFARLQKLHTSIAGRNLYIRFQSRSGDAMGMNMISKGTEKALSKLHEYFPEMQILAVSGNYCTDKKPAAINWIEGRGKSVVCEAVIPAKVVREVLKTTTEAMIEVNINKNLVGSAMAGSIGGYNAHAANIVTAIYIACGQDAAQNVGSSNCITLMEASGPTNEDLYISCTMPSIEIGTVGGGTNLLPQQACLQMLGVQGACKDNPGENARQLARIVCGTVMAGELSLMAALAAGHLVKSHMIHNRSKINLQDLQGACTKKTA
Measured DC50, listed per entry for reference.

{"MOLECULE": "Cc1ncsc1-c1ccc(CNC(=O)[C@@H]2C[C@@H](O)CN2C(=O)[C@@H](NC(=O)COCCOCCOCCOCCOCCNC(=O)CCC(C)(C)C(=O)O[C@H]2C[C@@H](C)C=C3C=C[C@H](C)[C@H](CC[C@@H]4C[C@@H](O)CC(=O)O4)[C@H]32)C(C)(C)C)cc1 [Compound 12]", "MEASURED_ON": "HMG-CoA reductase (Homo sapiens, UniProt P04035)", "RESULT": "< 50 nM"}

Proceed to the following item.
Identify the reported DC50 for the following entry. C[C@H]1C=C2C=C[C@H](C)[C@H](CC[C@@H]3C[C@@H](O[Si](C)(C)C(C)(C)C)CC(=O)O3)[C@H]2[C@@H](OC(=O)NCCOCCOCCCNc2cccc3c2C(=O)N(C2CCC(=O)NC2=O)C3=O)C1 (some centres unmarked) [Compound 92]
< 50 nM
